The entries below come with measured percentage of EdU-negative values attached.
Tested on: MCF7
Test: percentage of EdU-negative (G0-arrested) nuclei per well, 72 h; higher = more G0 arrest;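 further: secreted proteins added to cultured cells, EdU pulse at the end, nuclei found by Hoechst imaging, EdU status from nuclear versus surrounding ring intensity ratio, PBS as neutral control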
Details: protein concentration 0.0225 µM; reference: sequence is the full UniProt precursor, the tested protein was the secreted form or ectodomain

{"seq.string": "MDLSRPRWSLWRRVFLMASLLACGICQASGQIFITQTLGIKGYRTVVALDKVPEDVQEYSWYWGANDSAGNMIISHKPPSAQQPGPMYTGRERVNREGSLLIRPTALNDTGNYTVRVVAGNETQRATGWLEVLELGSNLGISVNASSLVENMDSVAADCLTNVTNITWYVNDVPTSSSDRMTISPDGKTLVILRVSRYDRTIQCMIESFPEIFQRSERISLTVAYGPDYVLLRSNPDDFNGIVTAEIGSQVEMECICYSFLDLKYHWIHNGSLLNFSDAKMNLSSLAWEQMGRYRCTVENPVTQLIMYMDVRIQAPHEDLTCCPQRFLHLRIHGDVPHHADSAGWRLHLWSPDPCSDQPLLNQDKSGSMSVHPRPEDKTRRASR [A8MTB9]", "percentage of EdU-negative": "28.6%"}
{"seq.string": "MAWMLLLILIMVHPGSCALWVSQPPEIRTLEGSSAFLPCSFNASQGRLAIGSVTWFRDEVVPGKEVRNGTPEFRGRLAPLASSRFLHDHQAELHIRDVRGHDASIYVCRVEVLGLGVGTGNGTRLVVEKEHPQLGAGTVLLLRAGFYAVSFLSVAVGSTVYYQGKCLTWKGPRRQLPAVVPAPLPPPCGSSAHLLPPVPGG", "percentage of EdU-negative": "22.7%"}
{"seq.string": "MAPARAGCCPLLLLLLGLWVAEVLVRAKPKDMTSSQWFKTQHVQPSPQACNSAMSIINKYTERCKDLNTFLHEPFSSVAITCQTPNIACKNSCKNCHQSHGPMSLTMGELTSGKYPNCRYKEKHLNTPYIVACDPPQQGDPGYPLVPVHLDKVV [Q8TDE3]", "percentage of EdU-negative": "28.2%"}

* * *

Tested on: MCF7
Test: percentage of EdU-negative (G0-arrested) nuclei per well, 72 h; higher = more G0 arrest
Conditions: protein concentration 0.3125 µM; reference: sequence is the full UniProt precursor, the tested protein was the secreted form or ectodomain
The entries below come with measured percentage of EdU-negative values attached.
quantity.name: percentage of EdU-negative (%)

{"seq.string": "MLPRVGCPALPLPPPPLLPLLLLLLGASGGGGGARAEVLFRCPPCTPERLAACGPPPVAPPAAVAAVAGGARMPCAELVREPGCGCCSVCARLEGEACGVYTPRCGQGLRCYPHPGSELPLQALVMGEGTCEKRRDAEYGASPEQVADNGDDHSEGGLVENHVDSTMNMLGGGGSAGRKPLKSGMKELAVFREKVTEQHRQMGKGGKHHLGLEEPKKLRPPPARTPCQQELDQVLERISTMRLPDERGPLEHLYSLHIPNCDKHGLYNLKQCKMSLNGQRGECWCVNPNTGKLIQGAPTIRGDPECHLFYNEQQEARGVHTQRMQ", "quantity.name": "percentage of EdU-negative", "recorded.value": 31.1}
{"seq.string": "MWPLWRLVSLLALSQALPFEQRGFWDFTLDDGPFMMNDEEASGADTSGVLDPDSVTPTYSAMCPFGCHCHLRVVQCSDLGLKSVPKEISPDTTLLDLQNNDISELRKDDFKGLQHLYALVLVNNKISKIHEKAFSPLRKLQKLYISKNHLVEIPPNLPSSLVELRIHDNRIRKVPKGVFSGLRNMNCIEMGGNPLENSGFEPGAFDGLKLNYLRISEAKLTGIPKDLPETLNELHLDHNKIQAIELEDLLRYSKLYRLGLGHNQIRMIENGSLSFLPTLRELHLDNNKLARVPSGLPDLKLLQVVYLHSNNITKVGVNDFCPMGFGVKRAYYNGISLFNNPVPYWEVQPATFRCVTDRLAIQFGNYKK", "quantity.name": "percentage of EdU-negative", "recorded.value": 25.1}
{"seq.string": "MPAFNRLFPLASLVLIYWVSVCFPVCVEVPSETEAVQGNPMKLRCISCMKREEVEATTVVEWFYRPEGGKDFLIYEYRNGHQEVESPFQGRLQWNGSKDLQDVSITVLNVTLNDSGLYTCNVSREFEFEAHRPFVKTTRLIPLRVTEEAGEDFTSVVSEIMMYILLVFLTLWLLIEMIYCYRKVSKAEEAAQENASDYLAIPSENKENSAVPVEE [Q9NY72]", "quantity.name": "percentage of EdU-negative", "recorded.value": 25.4}
{"seq.string": "MVKQIESKTAFQEALDAAGDKLVVVDFSATWCGPCKMIKPFFHSLSEKYSNVIFLEVDVDDCQDVASECEVKCMPTFQFFKKGQKVGEFSGANKEKLEATINELV", "quantity.name": "percentage of EdU-negative", "recorded.value": 23.8}
{"seq.string": "MKYTSYILAFQLCIVLGSLGCYCQDPYVKEAENLKKYFNAGHSDVADNGTLFLGILKNWKEESDRKIMQSQIVSFYFKLFKNFKDDQSIQKSVETIKEDMNVKFFNSNKKKRDDFEKLTNYSVTDLNVQRKAIHELIQVMAELSPAAKTGKRKRSQMLFRGRRASQ", "quantity.name": "percentage of EdU-negative", "recorded.value": 42.7}
{"seq.string": "MQAAWLLGALVVPQLLGFGHGARGAEREWEGGWGGAQEEEREREALMLKHLQEALGLPAGRGDENPAGTVEGKEDWEMEEDQGEEEEEEATPTPSSGPSPSPTPEDIVTYILGRLAGLDAGLHQLHVRLHALDTRVVELTQGLRQLRNAAGDTRDAVQALQEAQGRAEREHGRLEGCLKGLRLGHKCFLLSRDFEAQAAAQARCTARGGSLAQPADRQQMEALTRYLRAALAPYNWPVWLGVHDRRAEGLYLFENGQRVSFFAWHRSPRPELGAQPSASPHPLSPDQPNGGTLENCVAQASDDGSWWDHDCQRRLYYVCEFPF [Q9Y240]", "quantity.name": "percentage of EdU-negative", "recorded.value": 27.6}
{"seq.string": "MSLRLDTTPSCNSARPLHALQVLLLLSLLLTALASSTKGQTKRNLAKGKEESLDSDLYAELRCMCIKTTSGIHPKNIQSLEVIGKGTHCNQVEVIATLKDGRKICLDPDAPRIKKIVQKKLAGDESAD", "quantity.name": "percentage of EdU-negative", "recorded.value": 26.5}
{"seq.string": "MGPLSAPPCTEHIKWKGLLLTALLLNFWNLPTTAQVMIEAQPPKVSEGKDVLLLVHNLPQNLTGYIWYKGQIRDLYHYITSYVVDGQIIIYGPAYSGRETVYSNASLLIQNVTREDAGSYTLHIIKRGDGTRGVTGYFTFTLYLETPKPSISSSNLNPREAMETVILTCNPETPDASYLWWMNGQSLPMTHRMQLSETNRTLFLFGVTKYTAGPYECEIWNSGSASRSDPVTLNLLHGPDLPRIFPSVTSYYSGENLDLSCFANSNPPAQYSWTINGKFQLSGQKLFIPQITPKHNGLYACSARNSATGEESSTSLTIRVIAPPGLGTFAFNNPT [Q9UQ72]", "quantity.name": "percentage of EdU-negative", "recorded.value": 26.7}

* * *

Tested on: hTERT-HMEC
Assay: percentage of EdU-negative (G0-arrested) nuclei per well, 72 h; higher = more G0 arrest
Conditions: protein concentration 0.0225 µM; reference: sequence is the full UniProt precursor, the tested protein was the secreted form or ectodomain

{"seq.string": "MIRTLLLSTLVAGALSCGVSTYAPDMSRMLGGEEARPNSWPWQVSLQYSSNGQWYHTCGGSLIANSWVLTAAHCISSSGIYRVMLGQHNLYVAESGSLAVSVSKIVVHKDWNSDQVSKGNDIALLKLANPVSLTDKIQLACLPPAGTILPNNYPCYVTGWGRLQTNGALPDDLKQGQLLVVDYATCSSSGWWGSTVKTNMICAGGDGVICTCNGDSGGPLNCQASDGRWEVHGIGSLTSVLGCNYYYKPSIFTRVSNYNDWINSVIANN", "percentage of EdU-negative": "4.64%"}
{"seq.string": "MLTRLVLSAHLSSTTSPPWTHAAISWELDNVLMPSPRIWPQVTPTGRSASVRSEGNTSSLWNFSAGQDVHAIVTRTCESVLSSAVYTHGCGCVRSATNITCQSSGQQRQAARQEEENSICKAHDSREGRLGYPLSAHQPGSGGPN [Q8TAV5]", "percentage of EdU-negative": "5.65%"}
{"seq.string": "MAFLPSWVCVLVGSFSASLAGTSNLSETEPPLWKESPGQLSDYRVENSMYIINPWVYLERMGMYKIILNQTARYFAKFAPDNEQNILWGLPLQYGWQYRTGRLADPTRRTNCGYESGDHMCISVDSWWADLNYFLSSLPFLAAVDSGVMGISSDQVRLLPPPKNERKFCYDVSSCRSSFPETMNKWNTFYQYLQSPFSKFDDLLKYLWAAHTSTLADNIKSFEDRYDYYSKAEAHFERSWVLAVDHLAAVLFPTTLIRSYKFQKGMPPRILLNTDVAPFISDFTAFQNVVLVLLNMLDNVDKSIGYLCTEKSNVYRDHSESSSRSYGNNS [Q6P5S2]", "percentage of EdU-negative": "4.92%"}
{"seq.string": "MAALSRALGPLRTPAPPLWIGLFLVATGSQQSLAQPLPGNTTEATPRSLRASGSLCGPHAKAPYLCEATHEPAAARIRAQVPDTRWSRVGGQRFYSRVLSPLHRGPSGHTEASAQRSHMGKLKEPQPQDHKPGLGAS [Q6UXU0]", "percentage of EdU-negative": "5.38%"}
{"seq.string": "MCSRGWDSCLALELLLLPLSLLVTSIQGHLVHMTVVSGSNVTLNISESLPENYKQLTWFYTFDQKIVEWDSRKSKYFESKFKGRVRLDPQSGALYISKVQKEDNSTYIMRVLKKTGNEQEWKIKLQVLDPVPKPVIKIEKIEDMDDNCYLKLSCVIPGESVNYTWYGDKRPFPKELQNSVLETTLMPHNYSRCYTCQVSNSVSSKNGTVCLSPPCTLARSFGVEWIASWLVVTVPTILGLLLT", "percentage of EdU-negative": "4.77%"}
{"seq.string": "MAARALCMLGLVLALLSSSSAEEYVGLSANQCAVPAKDRVDCGYPHVTPKECNNRGCCFDSRIPGVPWCFKPLQEAECTF", "percentage of EdU-negative": "4.3%"}
